assay: LNP particle size by dynamic light scattering (Zetasizer Nano ZS); assay type: physicochemical; conditions: Table 3; N/P ratio 3:1; DMPE-PEG2000
measured-parameter: <d>N (nm)

>>> df
                                   compound  readout_number
0  CCCCCC(CCCCC)CCOC(=O)CCCCCC(CCCCCC(=O)OCCC(CCCCC)CCCCC)NC1CC2(COC2)C1 [Compound 13]              49
1  CCCCCC(CCCCC)CCOC(=O)CCCCCCCC(CCCCCCCC(=O)OCCC(CCCCC)CCCCC)NCC1CCCO1 (stereo not shown) [Compound 8]              61
2  CCCCCC(CCCCC)CCOC(=O)CCCCCCCC(CCCCCCCC(=O)OCCC(CCCCC)CCCCC)NCCC1CCOCC1 [Compound 7]              54
3  CCCCCC(CCCCC)CCOC(=O)CCCCCCCC(CCCCCCCC(=O)OCCC(CCCCC)CCCCC)NCC1COCCO1 (stereo not shown) [Compound 9]              61
4  CCCCCC(CCCCC)CCOC(=O)CCCCCCCCC(CCCCCCCCC(=O)OCCC(CCCCC)CCCCC)NC1CC2(COC2)C1 [Compound 14]              61
5  CCCCCC(CCCCC)CCOC(=O)CCCCCCCC(CCCCCCCC(=O)OCCC(CCCCC)CCCCC)NCC1CCCCO1 (stereo not shown) [Compound 6]              59
6  CCCCC/C=C\C/C=C\CCCCCCCCC(CCCCCCCC/C=C\C/C=C\CCCCC)OC(=O)CCCN(C)C [MC3, reference compound]              63
